Consider the following binders; for each one, report its IC50.
molecular target: Human ST2-fc (human) (UniProt Q01638); test: competition ELISA, coated ST2-fc, competitor IL33-his
Answers are plain numbers, in µg/mL.

Observe how each entry below is paired with its result.
Query: Quick check: IC50 of 5886-156-H1L1 (antibody, human IgG4 S228P, kappa, V domains shown, Humanized antibody) VH: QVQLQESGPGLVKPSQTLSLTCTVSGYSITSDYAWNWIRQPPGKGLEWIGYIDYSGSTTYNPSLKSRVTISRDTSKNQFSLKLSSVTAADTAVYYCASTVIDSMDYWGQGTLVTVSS VL: DIVLTQSPASLAVSPGQRATITCRASKSVSTSGHSYMHWYQQKPGQPPKLLIYLASNLESGVPARFSGSGSGTDFTLTINPVEANDAANYYCQHSREFPFTFGQGTKVEIKR ?
Result: 1

Query: Okay, and 5888-379-H0L0 (antibody, human IgG4 S228P, kappa, V domains shown) VH: QVQLVQSGAEVKKPGASVKVSCKASGYTFINYGMNWVRQAPGQRLEWMGWINTYIGEPTYGDNFKGRVTITRDTSASTAYMELSSLRSEDTAVYYCAREGDGFAYWGQGTLVTVSS VL: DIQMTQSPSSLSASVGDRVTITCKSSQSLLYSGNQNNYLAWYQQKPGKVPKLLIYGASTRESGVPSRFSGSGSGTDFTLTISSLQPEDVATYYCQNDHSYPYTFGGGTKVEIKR ?
Result: 0.488

New cases:
Query: Quick check: IC50 of 5888-379-H1L1 (antibody, human IgG4 S228P, kappa, V domains shown) VH: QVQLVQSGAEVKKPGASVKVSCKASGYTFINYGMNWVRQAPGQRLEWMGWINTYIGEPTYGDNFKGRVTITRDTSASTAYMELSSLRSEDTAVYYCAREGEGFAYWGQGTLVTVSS VL: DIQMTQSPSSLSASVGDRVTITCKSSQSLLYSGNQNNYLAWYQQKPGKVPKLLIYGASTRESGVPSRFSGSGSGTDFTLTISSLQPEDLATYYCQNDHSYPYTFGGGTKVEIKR ?
Result: 0.317
